The values you see were collected from paper PMC5371824.

- Study System: TASK-2 (Mus musculus, UniProt F6V9U5)
- Construct: expressed in transfected cells; host or cells: HEK-293
- Measurement Protocol: Excised inside-out patch recording from HEK-293 cells over-expressing TASK-2
- Format: biochemical
- Protocol Conditions: diC8 PIP, inside-out patch, -60 mV, absence of ATP, from fits, means ± SEM
Reported Property: Maximal fold effect on TASK-2 current (normalised to current in absence of PIP) (fold)

{"columns": ["Compound", "Reported"],
 "data": [
  ["CCCCCCCC(=O)OC[C@H](COP(=O)(O)O[C@@H]1[C@H](O)[C@H](O)[C@@H](OP(=O)(O)O)[C@H](OP(=O)(O)O)[C@H]1O)OC(=O)CCCCCCC [PI(4,5)P2]", 3.7],
  ["CCCCCCCC(=O)OC[C@H](COP(=O)(O)O[C@H]1[C@H](O)[C@@H](O)[C@H](OP(=O)(O)O)[C@@H](OP(=O)(O)O)[C@H]1O)OC(=O)CCCCCCC [PI(3,4)P2]", 4.3],
  ["CCCCCCCC(=O)OC[C@H](COP(=O)(O)O[C@H]1[C@H](O)[C@@H](OP(=O)(O)O)[C@H](OP(=O)(O)O)[C@@H](OP(=O)(O)O)[C@H]1O)OC(=O)CCCCCCC [PI(3,4,5)P3]", 11.6],
  ["CCCCCCCC(=O)OC[C@H](COP(=O)(O)O[C@H]1[C@H](O)[C@@H](O)[C@H](OP(=O)(O)O)[C@@H](O)[C@H]1O)OC(=O)CCCCCCC [PI(4)P]", 1.4]
]}

----------
- Study System: TASK-2 (Mus musculus)
- Construct: expressed in transfected cells; host or cells: HEK-293
- Sequence (F6V9U5 1-502): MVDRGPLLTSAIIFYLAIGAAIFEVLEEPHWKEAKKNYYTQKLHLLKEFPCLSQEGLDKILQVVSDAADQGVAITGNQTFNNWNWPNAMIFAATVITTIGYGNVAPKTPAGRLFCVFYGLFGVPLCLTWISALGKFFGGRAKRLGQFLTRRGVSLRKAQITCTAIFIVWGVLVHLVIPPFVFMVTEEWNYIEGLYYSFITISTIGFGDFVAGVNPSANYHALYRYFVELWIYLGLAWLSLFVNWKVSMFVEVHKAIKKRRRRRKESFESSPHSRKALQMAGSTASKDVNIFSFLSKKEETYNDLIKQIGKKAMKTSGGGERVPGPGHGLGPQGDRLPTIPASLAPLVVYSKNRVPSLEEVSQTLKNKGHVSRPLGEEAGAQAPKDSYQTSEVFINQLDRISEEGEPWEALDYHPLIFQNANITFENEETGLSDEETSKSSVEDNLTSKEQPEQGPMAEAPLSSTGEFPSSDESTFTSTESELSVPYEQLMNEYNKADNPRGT
- Measurement Protocol: Excised inside-out patch recording from HEK-293 cells over-expressing TASK-2
- Assay type: biochemical

{"columns": ["Smiles Text", "IC50"],
 "data": [
  ["CCCCC[N+](CCCCC)(CCCCC)CCCCC", "~2000 nM"]
]}

----------
- Study System: TASK-2 (Mus musculus, UniProt F6V9U5)
- Sequence (F6V9U5 1-502): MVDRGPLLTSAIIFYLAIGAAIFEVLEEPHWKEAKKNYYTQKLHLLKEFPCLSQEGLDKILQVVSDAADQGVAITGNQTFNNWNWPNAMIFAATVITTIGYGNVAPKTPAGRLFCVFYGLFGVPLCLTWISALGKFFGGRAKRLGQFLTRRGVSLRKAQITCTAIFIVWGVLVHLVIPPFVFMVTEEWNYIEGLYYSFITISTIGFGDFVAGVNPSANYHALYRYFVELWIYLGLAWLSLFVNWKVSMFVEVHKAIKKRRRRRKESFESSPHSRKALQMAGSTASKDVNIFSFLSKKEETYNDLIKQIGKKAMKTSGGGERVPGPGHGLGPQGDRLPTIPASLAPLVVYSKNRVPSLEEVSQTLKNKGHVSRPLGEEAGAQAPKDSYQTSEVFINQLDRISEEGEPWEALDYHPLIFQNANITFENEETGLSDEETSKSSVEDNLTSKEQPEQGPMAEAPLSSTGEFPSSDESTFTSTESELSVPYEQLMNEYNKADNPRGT
- Measurement Protocol: Excised inside-out patch recording from HEK-293 cells over-expressing TASK-2
- Protocol Conditions: diC8 PIP, inside-out patch, -60 mV, absence of ATP, from fits, means ± SEM; read-out: K0.5 (EC50) for activation of TASK-2 current
pEC50: −log10 of the molar value.
compounds and their reported pEC50

{"columns": ["Compound", "pEC50"],
 "data": [
  ["CCCCCCCC(=O)OC[C@H](COP(=O)(O)O[C@H]1[C@H](O)[C@@H](O)[C@H](OP(=O)(O)O)[C@@H](O)[C@H]1O)OC(=O)CCCCCCC", 4.30],
  ["CCCCCCCC(=O)OC[C@H](COP(=O)(O)O[C@H]1[C@H](O)[C@@H](O)[C@H](OP(=O)(O)O)[C@@H](OP(=O)(O)O)[C@H]1O)OC(=O)CCCCCCC [PI(3,4)P2]", 4.32],
  ["CCCCCCCC(=O)OC[C@H](COP(=O)(O)O[C@H]1[C@H](O)[C@@H](OP(=O)(O)O)[C@H](OP(=O)(O)O)[C@@H](OP(=O)(O)O)[C@H]1O)OC(=O)CCCCCCC", 4.53]
]}
